tested on: Mtb H37Ra; test: Microdilution broth resazurin assay, MIC; format: cell-based, Mycobacterium tuberculosis; details: Mycobacterium tuberculosis, H37RA; read-out: Antimycobacterial Activity MIC Mtb H37Ra
Catalogue of MIC values

These recorded examples may help you get a feel for the data.
>>> observed_value("Cc1nc2cc(Cl)ccc2c(=O)n1/N=C/C=C/c1ccccc1 [Compound 41]")
"≥ 31.2 µg/mL"
>>> observed_value("Cc1nc2cc(Cl)ccc2c(=O)n1/N=C/c1ccccc1F [Compound 42]")
"≥ 31.2 µg/mL"
>>> observed_value("Cc1ccccc1/C=N/n1c(C)nc2cc(Cl)ccc2c1=O [Compound 46]")
"≥ 62.5 µg/mL"

Task: Look at this compound and give its reported MIC. Cc1nc2cc(Cl)ccc2c(=O)n1/N=C/c1ccccc1O [Compound 35]
Result: ≥ 31.2 µg/mL

Task: Next entry: COc1cc(/C=N/n2c(C)nc3cc(Cl)ccc3c2=O)ccc1O [Compound 34]
Result: ≥ 62.5 µg/mL

Task: Next entry: Cc1nc2cc(Cl)ccc2c(=O)n1/N=C/c1cccc([N+](=O)[O-])c1 [Compound 27]
Result: ≥ 62.5 µg/mL

Task: Next entry: Cc1nc2cc(Cl)ccc2c(=O)n1/N=C/c1ccncc1 [Compound 31]
Result: ≥ 31.2 µg/mL

Task: Next entry: Cc1nc2cc(Cl)ccc2c(=O)n1/N=C/c1ccc([N+](=O)[O-])cc1 [Compound 28]
Result: ≥ 31.2 µg/mL

###

tested on: Mtb H37Ra; assay: Microdilution broth resazurin assay, MIC; assay type: cell-based, Mycobacterium tuberculosis; settings: Mycobacterium tuberculosis, H37RA; read-out: Antimycobacterial Activity MIC Mtb H37Ra
Catalogue of MIC values

>>> observed_value("Cc1cccc(/C=N/n2c(C)nc3cc(Cl)ccc3c2=O)c1 [Compound 47]")
"≥ 31.2 µg/mL"
>>> observed_value("Cc1nc2cc(Cl)ccc2c(=O)n1/N=C/c1ccccc1Br [Compound 52]")
"≥ 31.2 µg/mL"
>>> observed_value("COc1cccc(/C=N/n2c(C)nc3cc(Cl)ccc3c2=O)c1 [Compound 39]")
"≥ 62.5 µg/mL"
>>> observed_value("Cc1nc2cc(Cl)ccc2c(=O)n1/N=C/c1ccc(Cl)cc1 [Compound 51]")
"≥ 15.6 µg/mL"

# evaluate next
Task: Look at this compound and give its reported MIC. Cc1nc2cc(Cl)ccc2c(=O)n1/N=C/c1cccnc1 [Compound 30]
Result: ≥ 31.2 µg/mL

###

tested on: M. aurum; test: Microdilution broth resazurin assay, MIC; format: cell-based, Mycolicibacterium aurum; settings: Table S5 matching pairs series A and B
Catalogue of Antimycobacterial Activity MIC M. aurum values
Express it in µg/mL; write the number only.

Task: Look at this molecule and give its reported Antimycobacterial Activity MIC M. aurum. Cc1nc2ccccc2c(=O)n1Cc1ccc(C(F)(F)F)cc1
Result: 125

Task: Next entry: Cc1nc2ccccc2c(=O)n1Cc1cccc(Cl)c1
Result: 62.5

###

system: M. smegmatis; assay: Microdilution broth resazurin assay, MIC; assay type: cell-based, Mycolicibacterium smegmatis; conditions: Mycolicibacterium smegmatis, read-out: Antimycobacterial Activity MIC M. smeg.
QUANTITY KIND: MIC

Task: Look at this compound and give its reported MIC. Cc1ccc(/C=N/n2c(C)nc3cc(Cl)ccc3c2=O)cc1
Result: ≥ 31.2 µg/mL

Task: Next entry: Cc1nc2cc(Cl)ccc2c(=O)n1Cc1cccc(C(=O)O)c1
Result: ≥ 62.5 µg/mL

Task: Next entry: COc1ccc(Cn2c(C)nc3cc(Cl)ccc3c2=O)c(OC)c1
Result: ≥ 125 µg/mL

Task: Next entry: Cc1ccccc1/C=N/n1c(C)nc2cc(Cl)ccc2c1=O
Result: ≥ 62.5 µg/mL

Task: Next entry: Cc1nc2cc(Cl)ccc2c(=O)n1Cc1ccc(Cl)c(Cl)c1
Result: ≥ 125 µg/mL

The measurements presented in this section are drawn from paper PMC12221116.
